# Measurement Notes: NCI Yeast Anticancer Drug Screen. Data for the bub3 strain (AID 167)
# Setup Conditions: S. cerevisiae bub3 mutant strain, at 50.0 µM (retest, dose inferred, filed as 5.0), hits give high values
This is part of a sample that, as a whole, favours compounds with a hit. Of some 79,000 tested, about 15% had one in any assay.
Please use the following growth inhibition ranges when assigning a class: low class = under 50%, middle class = from 50% up to 80%, high class = 80% and over

{"Compound": "CC(=O)OCC(=O)C1(O)CCC2C3CCC4CCCCC4(C)C3CCC21C (stereo not drawn)", "Assigned Label": "middle class"}
{"Compound": "S=c1[nH]nc(Nc2ccc(Cl)cc2)s1", "Assigned Label": "low class"}
{"Compound": "COC1=CC(=O)C2C(C1=O)C(c1ccc(Cl)cc1)[C@@H]2C (stereo partly drawn)", "Assigned Label": "high class"}
{"Compound": "CN(C)c1ccc(C(C#N)=C(C#N)C#N)cc1", "Assigned Label": "middle class"}
{"Compound": "CCN(CC)C(=S)N/N=C(/C)c1cccc(/C(C)=N\\NC(=S)N(CC)CC)n1", "Assigned Label": "high class"}
{"Compound": "CCCCCCCCCCC1CCC(=O)O1 (stereo not drawn)", "Assigned Label": "low class"}
{"Compound": "O=C1C2C(C(=O)N1c1ccc(OCc3ccccc3)cc1)C1c3ccccc3C2C2CCCCN21 (stereo not drawn)", "Assigned Label": "low class"}
{"Compound": "Cc1cc(N=Nc2ccc(S(=O)(=O)[O-])cc2)cc(C(=O)[O-])c1[O-].NC1CCCCC1N.[Na+].[Pt+4]", "Assigned Label": "high class"}
{"Compound": "CCC/C(Cl)=N\\OC(=O)Nc1ccc(Br)cc1", "Assigned Label": "high class"}
{"Compound": "C/C(=N\\NC(=S)SCc1ccccc1)c1ccccn1", "Assigned Label": "high class"}
{"Compound": "O=C(CC(=O)n1nc(-c2ccccc2)c(N=Nc2ccccc2C(=O)O)c1-c1ccccc1)Nc1ccc(Cl)cc1", "Assigned Label": "middle class"}
{"Compound": "CC(C)(CN1CCCCC1)C(=O)CC(SCCS(=O)(=O)O)c1ccc(Br)cc1 (stereo not drawn)", "Assigned Label": "middle class"}
{"Compound": "CC(C)[N+]([O-])(CCCNc1c2ccccc2nc2cccc([N+](=O)[O-])c12)C(C)C", "Assigned Label": "high class"}
{"Compound": "O=C(Nc1ccccc1)C(=O)C(C(=O)c1ccccc1)C(c1ccccc1)c1ccccc1 (stereo not drawn)", "Assigned Label": "low class"}
{"Compound": "Cc1cc(I)ccc1N", "Assigned Label": "high class"}
{"Compound": "CCc1ncnc2cc(OCC3CO3)c(OC)cc12 (stereo not drawn)", "Assigned Label": "low class"}
{"Compound": "Cc1cc(S(=O)(=O)/N=C(/NN)NNc2cccc(C(F)(F)F)n2)c(S)cc1Cl", "Assigned Label": "low class"}
{"Compound": "O=C1NC(=O)C2C3C=CC(C3)C12 (stereo not drawn)", "Assigned Label": "low class"}
{"Compound": "COc1cccc2nc3ccccc3nc12", "Assigned Label": "low class"}
{"Compound": "COc1ccc2c(c1)C(=O)c1ccccc1C2", "Assigned Label": "high class"}

###

Listed next: entries and their corresponding growth inhibition.
# Measurement Notes: NCI Yeast Anticancer Drug Screen. Data for the CLN2oe strain (AID 163);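 further: 0% = growth of vehicle-only control cultures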
# Setup Conditions: S. cerevisiae CLN2oe strain, at 11.0 µM, hits give high values
Compounds without any hit were thinned out: in the full panel of roughly 79,000, 15% have a hit. The source made the active and inactive calls. Cut-off read from the data, not from the text of the source: active = growth inhibition above about 70%; inactive = the rest.

{"Compound": "COc1cccc2nc3ccccc3nc12", "growth inhibition": "1% (inactive)"}
{"Compound": "Brc1ccc(-c2cc3c(cc2C2SCCS2)OCO3)cc1", "growth inhibition": "-28% (inactive)"}
{"Compound": "O=C(OCCN1CCCCCC1)C(c1ccsc1)C1CCCCC1 (centres undefined)", "growth inhibition": "51% (inactive)"}
{"Compound": "CCN(CC)CC[n+]1ccc2c(C)c3[nH]c4ccc(O)cc4c3c(C)c2c1", "growth inhibition": "-8% (inactive)"}
{"Compound": "S=C(Nc1ccc(Cl)cc1)SC1CCCCC1", "growth inhibition": "43% (inactive)"}
{"Compound": "CC(=O)SCCC[Si](C)(C)CCCSC(C)=O", "growth inhibition": "-7% (inactive)"}
{"Compound": "Oc1c(Br)cc(Br)cc1C1CCCCC1", "growth inhibition": "27% (inactive)"}
{"Compound": "CC(=O)Oc1ccc2c(c1)Cc1cc(N=C3C=CC(=O)O3)ccc1-2", "growth inhibition": "94% (active)"}
{"Compound": "COc1ccc2c(c1)C(=O)c1ccccc1C2", "growth inhibition": "0% (inactive)"}
{"Compound": "CC(C)(Br)C(=O)/C=C/c1ccc(Cl)c(Cl)c1", "growth inhibition": "-5% (inactive)"}
{"Compound": "O=[N+]([O-])c1cc2no[n+]([O-])c2cc1N1CCCCC1", "growth inhibition": "96% (active)"}
{"Compound": "CC(C)(CN1CCCCC1)C(=O)CC(SCCS(=O)(=O)O)c1ccc(Br)cc1 (centres undefined)", "growth inhibition": "13% (inactive)"}
{"Compound": "CN(C)c1nc2sc3c(c2c(=O)o1)CCCC3", "growth inhibition": "-2% (inactive)"}
{"Compound": "Clc1cccc(C(Nc2nncs2)Nc2nncs2)c1Cl", "growth inhibition": "-1% (inactive)"}
{"Compound": "CC(C)(C)c1nc2c(o1)C(=O)c1ccccc1C2=O", "growth inhibition": "6% (inactive)"}
{"Compound": "COc1cc(/C=C2\\CCc3ccccc3C2=O)cc(OC)c1OC", "growth inhibition": "2% (inactive)"}
{"Compound": "CC(C)c1cc(C(C)C)c(O)c(C([O-])[O-])c1.CC(C)c1cc(C(C)C)c(O)c(C([O-])[O-])c1.CC(C)c1cc(C(C)C)c(O)c(C([OH2+])[OH2+])c1.CC(C)c1cc(C(C)C)c(O)c(C([OH2+])[OH2+])c1.[Cu+2].[Cu+2].[OH3+].[OH3+]", "growth inhibition": "34% (inactive)"}
{"Compound": "NC(N)=N/N=C\\c1c2ccccc2cc2ccccc12", "growth inhibition": "-4% (inactive)"}
{"Compound": "CCOP(=O)(OCC)C(Cc1ccccc1)N=C(c1ccccc1)c1ccccc1 (centres undefined)", "growth inhibition": "-21% (inactive)"}
{"Compound": "CCCCCCCCCCCCCCCCCCNC", "growth inhibition": "2% (inactive)"}
{"Compound": "CSC(=S)N/N=C(\\C)c1cccc(C)n1", "growth inhibition": "-15% (inactive)"}
{"Compound": "O=C(c1ccc(Cl)cc1Cl)C(Cl)Cl", "growth inhibition": "-13% (inactive)"}
{"Compound": "Nc1nc(-c2cccnc2)cc(-c2cc(-c3cccnc3)nc(N)n2)n1", "growth inhibition": "2% (inactive)"}
{"Compound": "Cc1nc(-c2ccccc2)c(-c2ccccc2)s1", "growth inhibition": "1% (inactive)"}
